All values here come from PubChem BioAssay.

Assay: small-molecule binders of probe aNOTCH2, primary screen, biochemical, small-molecule microarray, 635/667 nm fluorescence (AID 1121);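 note: score merges feature fluorescence read at 667 nm with its signal to noise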
Details: higher = more signal
I'd be grateful if you could share measured composite z-score for these entries.
Give bare numbers.

Quick request: composite z-score for each listed item, please.
1. C[C@@H](c1ccccc1)N1C(=O)[C@H]2[C@H]3[C@H](O)[C@H](O)CC(=NOCc4ccccc4)[C@@H]3CC[C@H]2C1=O
2. COc1ccc(O[C@H]2C=C[C@@H](c3ccccc3)O[C@@H]2CO)cc1

Result:
[-0.0467, -0.104]

// for each compound in input: emit composite z-score
1. CC(C)=NO[C@@H](C)c1cn([C@H](CO)Cc2ccccc2)nn1
2. C=CC[C@@H]1C=C[C@H](ON=C(C)CCN2CCCc3nc(C)c(C)cc32)[C@@H](CO)O1
3. O=C1CCCC=C1C(O)C1CCCCC1 (configuration not stated)
4. C=C(C)C(=O)OC[C@H]1CN2[C@@H](CC[C@@H](C)[C@@H]2c2ccc(Br)cc2)C(=O)O1

Result:
-0.0375
0.276
-0.0818
-0.104

For every listed record, write down its composite z-score.
1. O=C1CCCC=C1C(O)COCc1ccccc1 (configuration not stated)
2. O=C1[C@H]2[C@H]3[C@H](O)[C@H](O)CC(=NO[C@@H]4O[C@H](CO)[C@@H](O)[C@H](O)[C@H]4O)[C@H]3CC[C@H]2C(=O)N1C[C@@H]1CCCO1
3. CCOC(=O)CCN1C(=O)[C@H]2[C@@H]3C(=CC[C@H]2C1=O)C(=O)[C@H]1O[C@H]1[C@H]3O
4. O=C1[C@H]2[C@H]3[C@H](O)[C@H](O)CC(=NOC[C@@H](O)COCc4ccco4)[C@@H]3CC[C@H]2C(=O)N1C1CCCCC1
5. C#CCCCON=C1[C@H]2CCn3c(=O)n([C@@H](CC)c4ccccc4)c(=O)n3[C@H]2[C@H](O)[C@@H]2O[C@H]12
6. CCN(CC)CC(O)CN1CCCCc2nc(C)c(C)cc21 (configuration not stated)

Result:
1. -0.157
2. -0.0101
3. -0.146
4. -0.251
5. -0.0745
6. -0.195

Hey, quick one: what's composite z-score for each of these?
1. CC(=O)OC[C@H]1O[C@H](CC=NOCC[C@@H]2C=C[C@H](OC(C)=O)[C@@H](COC(C)=O)O2)C=C[C@@H]1OC(C)=O
2. CC(=O)OC[C@H]1O[C@H](CC=NO[C@@H](C)c2cc(-c3c(C)cc(C)cc3C)no2)C=C[C@@H]1OC(C)=O

Result:
1: -0.165; 2: -0.0532

Parameter requested: composite z-score. Apply to each item below.
1. CC(C)[C@@H](OCc1ccccc1)[C@H](C)C=NO[C@@H](C)c1cn([C@H](CO)Cc2ccccc2)nn1
2. COc1ccc(COC(=O)NN=C2C[C@@H](O)[C@@H](O)[C@@H]3[C@@H]4C(=O)N(c5cccc(Oc6ccccc6)c5)C(=O)[C@@H]4CC[C@H]23)cc1
3. CO[C@H]1COC(=O)[C@H](CCSC)NC(=O)CC=C[C@@H](C)[C@H](OC)COC(=O)[C@@H](OCc2ccccc2)C=C[C@@H]1C
4. CCN1C(=O)[C@H]2[C@H]3[C@H](O)[C@H](O)CC(=NOCC(C)C)[C@H]3CC[C@H]2C1=O
5. COc1ccc(OC[C@@H](CO)OC)cc1
6. C[C@@H](c1ccccc1)N1C(=O)[C@H]2[C@H]3[C@H](O)[C@H](O)CC(=NOC[C@@H](O)COCc4ccco4)[C@H]3CC[C@H]2C1=O

Result:
[-0.146, -0.0665, -0.153, -0.204, -0.118, -0.189]

Report composite z-score for every entry below.
1. C#CCCCON=C1C[C@@H](O)[C@@H](O)[C@@H]2[C@@H]3C(=O)N(C[C@@H]4CCCO4)C(=O)[C@@H]3CC[C@H]12
2. CCOC(=O)[C@H](CC(C)C)NC(=O)CCC1CC(OC(=O)NCCc2ccc(F)cc2)CC2(CCCC(COC(=O)NCCCN3CCCC3=O)O2)O1 (some centres not stated)
3. O=C1C=C[C@@H](O)[C@@H]2[C@@H]3C(=O)N(Cc4ccc5c(c4)OCO5)C(=O)[C@@H]3CC[C@@H]12
4. CC(CCN1CCCc2nc(C)c(C)cc21)=NO[C@@H](C)c1cn([C@H](CO)Cc2ccccc2)nn1
5. CO[C@H]1COC(=O)CC=C[C@H](C)[C@H](OC)COC(=O)[C@@H](C)NC(=O)CC=C[C@@H]1C
6. C=CC[C@@H]1C=C[C@H](ON=C[C@@H](NS(=O)(=O)c2ccc(C)cc2)[C@H](C)C=CCC(=O)OC)[C@@H](CO)O1
7. O=C1C=C[C@@H](O)[C@@H]2[C@@H]3C(=O)N(C4CCCCC4)C(=O)[C@@H]3CC[C@@H]12

Result:
-0.115
-0.0839
-0.0567
-0.0282
-0.164
-0.0393
-0.126

List composite z-score for every entry below, keeping the order given.
1. COc1ccc(COC(=O)NN=C2C[C@@H](O)[C@@H](O)[C@@H]3[C@@H]4C(=O)N([C@@H](C)c5ccccc5)C(=O)[C@@H]4CC[C@H]23)cc1
2. CO[C@H]1COC(=O)[C@H](C)COC(=O)[C@H](C)NC(=O)CC=C[C@H]1C
3. COc1ccc2c(c1)O[C@@H](c1cccc(C(F)(F)F)c1)[C@H](O)C2=O
4. OC[C@H]1O[C@H](C#Cc2ccccc2)C=C[C@@H]1O
5. COC(=O)[C@H](C)NC(=O)CC=C[C@@H](C)[C@@H]1C=C[C@H](O)[C@@H](CO)O1

Result:
1. 0.867
2. -0.0051
3. -0.0761
4. -0.101
5. -0.237

----------
Molecular target: NADPH oxidase 4 (Homo sapiens) (UniProt Q9NPH5)
Sequence (Q9NPH5 whole entry, looked up): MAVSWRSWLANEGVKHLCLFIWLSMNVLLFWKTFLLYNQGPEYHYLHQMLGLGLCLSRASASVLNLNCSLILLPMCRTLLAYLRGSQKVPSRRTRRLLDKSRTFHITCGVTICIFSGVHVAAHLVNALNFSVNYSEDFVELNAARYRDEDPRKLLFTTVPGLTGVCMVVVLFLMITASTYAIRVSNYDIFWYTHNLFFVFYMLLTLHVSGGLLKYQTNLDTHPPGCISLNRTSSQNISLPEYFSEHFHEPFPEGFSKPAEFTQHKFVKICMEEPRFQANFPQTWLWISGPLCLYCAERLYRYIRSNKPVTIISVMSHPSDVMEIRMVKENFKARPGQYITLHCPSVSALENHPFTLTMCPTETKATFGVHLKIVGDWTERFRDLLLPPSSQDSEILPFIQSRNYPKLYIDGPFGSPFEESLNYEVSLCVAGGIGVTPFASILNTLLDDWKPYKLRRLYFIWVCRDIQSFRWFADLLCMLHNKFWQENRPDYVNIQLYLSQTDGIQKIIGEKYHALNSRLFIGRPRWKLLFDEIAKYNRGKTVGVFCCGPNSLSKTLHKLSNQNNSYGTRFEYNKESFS
Assay: NOX4-dependent H2O2 signal modulators, primary screen, NOX inhibitor project, cell-based, HEK293-NOX4, tetracycline-induced, Amplex Red fluorescence (AID 1160)
Conditions: 45 min, higher = more signal, called active from +8 up or from −8 down
measuredParameter: z-score
One number for each entry.

Worked examples follow.
Q: Which z-score value is on record for CCOC(=O)[C@H](Cc1ccccc1)NC(=O)CCC1CC(OC(=O)NCc2ccc3c(c2)OCO3)CC2(CCCC(COC(=O)NCCOC)O2)O1 (stereo not given in full) ?
Result: -0.931

Q: Any idea what its z-score is? The molecule is COC(=O)[C@H](C)NC(=O)CCC1CC(OC(=O)NCc2cccc3ccccc23)CC2(CCCC(COC(=O)NCCOc3ccccc3)O2)O1 (stereo not given in full)
Result: -0.292

Q: Query (molecule): `CO[C@H]1COC(=O)CC=C[C@@H](C)COC(=O)[C@H]2CCCN2C(=O)CC=C[C@H]1C` ; field requested: z-score
Result: 0.32

Q: Bench note: what z-score did CCOC(=O)[C@H](CC(C)C)NC(=O)CCC1CC(OC(=O)NCc2ccc3c(c2)OCO3)CC2(CCCC(COC(=O)NCCOC)O2)O1 (stereo not given in full) show?
Result: -0.0492

Please look at the items below and tell me z-score for each one, in order.
1. CCN1C(=O)[C@H]2[C@H]3[C@H](O)[C@H](O)CC(=NNC(=O)OCc4ccccc4)[C@H]3CC[C@H]2C1=O
2. O=C1[C@H]2[C@H]3[C@H](O)[C@H](O)CC(=NOCc4ccccc4)[C@H]3CC[C@H]2C(=O)N1C1CCCCC1

Result:
1. 0.424
2. -1.09

Give measured z-score for every item shown.
1. CCOC(=O)[C@H](CC(C)C)NC(=O)CCC1CC(OC(=O)NCCc2ccc(F)cc2)CC2(CCCC(COC(=O)NCc3cccc4ccccc34)O2)O1 (stereo not given in full)
2. COC(=O)[C@H](C)NC(=O)CCC1CC(OC(=O)NCc2cccc3ccccc23)CC2(CCCC(COC(=O)NCCc3ccccc3OC)O2)O1 (stereo not given in full)
3. CC(=O)OC[C@H]1O[C@H](CC=NO[C@@H](C)c2cc(-c3c(C)cc(C)cc3C)no2)C=C[C@@H]1OC(C)=O

Result:
0.378
0.357
-0.444

Batch request: z-score per item, same order as input.
1. COc1ccc(O[C@H]2C=C[C@@H](C#Cc3ccccc3)O[C@@H]2CO)cc1
2. CC(=O)OC[C@H]1O[C@H](CC=NOC[C@@H](O)COCc2ccco2)C=C[C@@H]1OC(C)=O

Result:
1: -0.196; 2: 0.748

// for each molecule below, give its z-score
1. COC(=O)[C@@H]1CC[C@H](C)[C@@H](c2ccc(C)cc2)N1C(=O)c1ccc(C=NO[C@@H](C)c2cc(-c3c(C)cc(C)cc3C)no2)cc1
2. CCOC(=O)[C@H](CC(C)C)NC(=O)CCC1CC(OC(=O)NCCc2ccc(F)cc2)CC2(CCCC(COC(=O)NCCCN3CCCC3=O)O2)O1 (stereo not given in full)

Result:
1: 0.945; 2: 0.775

Each of the following entries comes with a recorded value; kindly state z-score for each.
1. CC(C)C(=O)N[C@H]1CCCN1C(=O)C=Cc1ccccc1
2. CCOC(=O)CCN1C(=O)[C@H]2[C@H]3[C@H](O)[C@H](O)CC(=NO[C@@H]4O[C@H](CO)[C@@H](O)[C@H](O)[C@H]4O)[C@@H]3CC[C@H]2C1=O

Result:
1. 0.913
2. 0.332
